Provide the reported cell transfection efficiency, times that of YK-314 of each item.
Test system: 293T cells
Assay: Fluorescent detection of Fluc-mRNA (cell transfection efficiency of LNP formulations)
Assay type: cell-based
Settings: comparator YK-314
The reply should contain only the number, in times.

Which cell transfection efficiency, times that of YK-314 value is on record for CCCCCCC(CCCCCC)CCOC(=O)CCCCCCN(CCCCCCC(=O)OCCC(CCCCCC)CCCCCC)C[C@H](O)CN(CCO)CCO [YK-319] ?
44.70

Which cell transfection efficiency, times that of YK-314 value is on record for CCCCCCCCC(CCCCCCCC)COC(=O)CCCCCN(CCCCCC(=O)OCC(CCCCCCCC)CCCCCCCC)C[C@H](O)CN(C)CCO [YK-305] ?
50.07

Which cell transfection efficiency, times that of YK-314 value is on record for CCCCCCCCCCCOC(=O)CCCCCN(CCCC(=O)OCCCC(CCCCCCCCCC)CCCCCCCCCC)C[C@H](O)CN(CC)CCO [YK-310] ?
47.12

Which cell transfection efficiency, times that of YK-314 value is on record for CCCCCCCCC(CCCCCCCC)COC(=O)CCCCCN(CCCCCC(=O)OCC(CCCCCCCC)CCCCCCCC)C[C@H](O)CN(CC)CCO [YK-312] ?
36.81

Which cell transfection efficiency, times that of YK-314 value is on record for CCCCCCCCC(CCCCCCCC)OC(=O)CCCCCN(CCCCCC(=O)OC(CCCCCCCC)CCCCCCCC)C[C@H](O)CN(CCO)CCO [YK-318] ?
20.44
